Assay System: human islet amyloid polypeptide (hIAPP, amylin) (Homo sapiens, UniProt P10997)
Sequence (P10997 34-70 limits assumed): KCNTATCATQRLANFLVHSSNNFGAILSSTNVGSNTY
pKd: −log10 of the molar value.
Reported Property: pKd

Entry "O=C(O[C@@H]1Cc2c(O)cc(O)cc2O[C@@H]1c1cc(O)c(O)c(O)c1)c1cc(O)c(O)c(O)c1" needs its pKd filled in; supply it.
~5.96
